assay: Effective concentration for 50% protection of HIV-induced cytopathogenicity in MT-4 cells on the MTT assay
pEC50: −log10 of the molar value.
pEC50 values by entry
Outcome measure: pEC50

• NCCCC[C@@H]1NC(=O)[C@H](CCCNC(N)=O)NC(=O)[C@H](Cc2ccc(O)cc2)NC(=O)[C@@H](NC(=O)[C@@H](NC(=O)[C@H](CCCN=C(N)N)NC(=O)[C@@H](N)CCCN=C(N)N)c2ccc3ccccc3c2)CSSC[C@@H](C(=O)N[C@@H](CCCN=C(N)N)C(N)=O)NC(=O)[C@H](CCCNC(N)=O)NC(=O)[C@H](CCCN=C(N)N)NC(=O)[C@H](Cc2ccc(O)cc2)NC(=O)[C@@H]2CCCN2C(=O)[C@@H](CCCCN)NC1=O [Derivative of T140 peptide] = 9.22
• NCCCC[C@@H]1NC(=O)[C@H](CCCNC(N)=O)NC(=O)[C@H](Cc2ccc(O)cc2)NC(=O)[C@@H](NC(=O)[C@@H](NC(=O)[C@H](CCCN=C(N)N)NC(=O)[C@@H](N)CCCN=C(N)N)c2ccc3ccccc3c2)CSSC[C@@H](C(=O)N[C@@H](CCCN=C(N)N)C(=O)O)NC(=O)[C@H](CCCNC(N)=O)NC(=O)[C@H](CCCN=C(N)N)NC(=O)[C@H](Cc2ccc(O)cc2)NC(=O)[C@@H]2CCCN2C(=O)[C@@H](CCCCN)NC1=O [Derivative of T140 peptide] = 8.55
• NCCCC[C@@H]1NC(=O)[C@H](CCCN=C(N)N)NC(=O)[C@H](Cc2ccc(O)cc2)NC(=O)[C@@H](NC(=O)[C@@H](NC(=O)[C@H](CCCN=C(N)N)NC(=O)[C@@H](N)CCCN=C(N)N)c2ccc3ccccc3c2)CSSC[C@@H](C(=O)N[C@@H](CCCN=C(N)N)C(N)=O)NC(=O)[C@H](CCCNC(N)=O)NC(=O)[C@H](CCCN=C(N)N)NC(=O)[C@H](Cc2ccc(O)cc2)NC(=O)[C@@H]2CCCN2C(=O)[C@@H](CCCNC(N)=O)NC1=O [Derivative of T140 peptide] = 8.34
• NCCCC[C@@H]1NC(=O)[C@H](CCCN=C(N)N)NC(=O)[C@H](Cc2ccc(O)cc2)NC(=O)[C@@H](NC(=O)[C@@H](NC(=O)[C@H](CCCN=C(N)N)NC(=O)[C@@H](N)CCCN=C(N)N)c2ccc3ccccc3c2)CSSC[C@@H](C(=O)N[C@@H](CCCN=C(N)N)C(=O)O)NC(=O)[C@H](CCCNC(N)=O)NC(=O)[C@H](CCCN=C(N)N)NC(=O)[C@H](Cc2ccc(O)cc2)NC(=O)[C@@H]2CCCN2C(=O)[C@@H](CCCNC(N)=O)NC1=O = 8.40

* * *

experiment: Inhibitory concentration determined on an HIV infection model mediated by CXCR4
pIC50: −log10 of the molar value.
Outcome measure: pIC50

- NCCCC[C@@H]1NC(=O)[C@H](CCCNC(N)=O)NC(=O)[C@H](Cc2ccc(O)cc2)NC(=O)[C@@H](NC(=O)[C@@H](NC(=O)[C@H](CCCN=C(N)N)NC(=O)[C@@H](N)CCCN=C(N)N)c2ccc3ccccc3c2)CSSC[C@@H](C(=O)N[C@@H](CCCN=C(N)N)C(N)=O)NC(=O)[C@H](CCCNC(N)=O)NC(=O)[C@H](CCCN=C(N)N)NC(=O)[C@H](Cc2ccc(O)cc2)NC(=O)[C@@H]2CCCN2C(=O)[C@@H](CCCNC(N)=O)NC1=O [Derivative of T140 peptide]: 7.72

* * *

assay: Effective concentration for 50% protection of HIV-induced cytopathogenicity in MT-4 cells on the MTT assay
A collection of molecules and their measured EC50
Outcome measure: EC50 (nM)

• NCCCC[C@@H]1NC(=O)[C@H](CCCN=C(N)N)NC(=O)[C@H](Cc2ccc(O)cc2)NC(=O)[C@@H](NC(=O)[C@@H](NC(=O)[C@H](CCCN=C(N)N)NC(=O)[C@@H](N)CCCNC(N)=O)c2ccc3ccccc3c2)CSSC[C@@H](C(=O)N[C@@H](CCCN=C(N)N)C(=O)O)NC(=O)[C@H](CCCNC(N)=O)NC(=O)[C@H](CCCN=C(N)N)NC(=O)[C@H](Cc2ccc(O)cc2)NC(=O)[C@@H]2CCCN2C(=O)[C@@H](CCCNC(N)=O)NC1=O [Derivative of T140 peptide] = 36
• NCCCC[C@@H]1NC(=O)[C@H](CCCN=C(N)N)NC(=O)[C@H](Cc2ccc(O)cc2)NC(=O)[C@@H](NC(=O)[C@@H](NC(=O)[C@H](CCCN=C(N)N)NC(=O)[C@@H](N)CCCN=C(N)N)c2ccc3ccccc3c2)CSSC[C@@H](C(=O)N[C@@H](CCCN=C(N)N)C(N)=O)NC(=O)[C@H](CCCNC(N)=O)NC(=O)[C@H](CCCN=C(N)N)NC(=O)[C@H](Cc2ccc(O)cc2)NC(=O)[C@@H]2CCCN2C(=O)[C@@H](CCCCN)NC1=O [Derivative of T140 peptide] = 72
• NCCCC[C@@H]1NC(=O)[C@H](CCCN=C(N)N)NC(=O)[C@H](Cc2ccc(O)cc2)NC(=O)[C@@H](NC(=O)[C@@H](NC(=O)[C@H](CCCN=C(N)N)NC(=O)[C@@H](N)CCCN=C(N)N)c2ccc3ccccc3c2)CSSC[C@@H](C(=O)N[C@@H](CCCN=C(N)N)C(N)=O)NC(=O)[C@H](CCCNC(N)=O)NC(=O)[C@H](CCCNC(N)=O)NC(=O)[C@H](Cc2ccc(O)cc2)NC(=O)[C@@H]2CCCN2C(=O)[C@@H](CCCNC(N)=O)NC1=O [Derivative of T140 peptide] = 2.7

* * *

test: Inhibitory concentration determined on an HIV infection model mediated by CXCR4
pIC50: −log10 of the molar value.
Some molecules, each annotated with its measured pIC50.
Outcome measure: pIC50

- NCCCC[C@@H]1NC(=O)[C@H](CCCN=C(N)N)NC(=O)[C@H](Cc2ccc(O)cc2)NC(=O)[C@@H](NC(=O)[C@@H](NC(=O)[C@H](CCCN=C(N)N)NC(=O)[C@@H](N)CCCN=C(N)N)c2ccc3ccccc3c2)CSSC[C@@H](C(=O)N[C@@H](CCCN=C(N)N)C(=O)O)NC(=O)[C@H](CCCNC(N)=O)NC(=O)[C@H](CCCN=C(N)N)NC(=O)[C@H](Cc2ccc(O)cc2)NC(=O)[C@@H]2CCCN2C(=O)[C@@H](CCCCN)NC1=O: 8.00
- NCCCC[C@@H]1NC(=O)[C@H](CCCN=C(N)N)NC(=O)[C@H](Cc2ccc(O)cc2)NC(=O)[C@@H](NC(=O)[C@@H](NC(=O)[C@H](CCCN=C(N)N)NC(=O)[C@@H](N)CCCN=C(N)N)c2ccc3ccccc3c2)CSSC[C@@H](C(=O)N[C@@H](CCCN=C(N)N)C(N)=O)NC(=O)[C@H](CCCNC(N)=O)NC(=O)[C@H](CCCN=C(N)N)NC(=O)[C@H](Cc2ccc(O)cc2)NC(=O)[C@@H]2CCCN2C(=O)[C@@H](CCCNC(N)=O)NC1=O [Derivative of T140 peptide]: 7.62
- NCCCC[C@@H]1NC(=O)[C@H](CCCNC(N)=O)NC(=O)[C@H](Cc2ccc(O)cc2)NC(=O)[C@@H](NC(=O)[C@@H](NC(=O)[C@H](CCCN=C(N)N)NC(=O)[C@@H](N)CCCN=C(N)N)c2ccc3ccccc3c2)CSSC[C@@H](C(=O)N[C@@H](CCCN=C(N)N)C(N)=O)NC(=O)[C@H](CCCNC(N)=O)NC(=O)[C@H](CCCN=C(N)N)NC(=O)[C@H](Cc2ccc(O)cc2)NC(=O)[C@@H]2CCCN2C(=O)[C@@H](CCCCN)NC1=O [Derivative of T140 peptide]: 7.92
- NCCCC[C@@H]1NC(=O)[C@H](CCCNC(N)=O)NC(=O)[C@H](Cc2ccc(O)cc2)NC(=O)[C@@H](NC(=O)[C@@H](NC(=O)[C@H](CCCN=C(N)N)NC(=O)[C@@H](N)CCCN=C(N)N)c2ccc3ccccc3c2)CSSC[C@@H](C(=O)N[C@@H](CCCN=C(N)N)C(=O)O)NC(=O)[C@H](CCCNC(N)=O)NC(=O)[C@H](CCCN=C(N)N)NC(=O)[C@H](Cc2ccc(O)cc2)NC(=O)[C@@H]2CCCN2C(=O)[C@@H](CCCNC(N)=O)NC1=O [Derivative of T140 peptide]: 7.29
- NCCCC[C@@H]1NC(=O)[C@H](CCCN=C(N)N)NC(=O)[C@H](Cc2ccc(O)cc2)NC(=O)[C@@H](NC(=O)[C@@H](NC(=O)[C@H](CCCN=C(N)N)NC(=O)[C@@H](N)CCCN=C(N)N)c2ccc3ccccc3c2)CSSC[C@@H](C(=O)N[C@@H](CCCN=C(N)N)C(=O)O)NC(=O)[C@H](CCCNC(N)=O)NC(=O)[C@H](CCCN=C(N)N)NC(=O)[C@H](Cc2ccc(O)cc2)NC(=O)[C@@H]2CCCN2C(=O)[C@@H](CCCNC(N)=O)NC1=O: 7.64
- NCCCC[C@@H]1NC(=O)[C@H](CCCNC(N)=O)NC(=O)[C@H](Cc2ccc(O)cc2)NC(=O)[C@@H](NC(=O)[C@@H](NC(=O)[C@H](CCCN=C(N)N)NC(=O)[C@@H](N)CCCN=C(N)N)c2ccc3ccccc3c2)CSSC[C@@H](C(=O)N[C@@H](CCCN=C(N)N)C(=O)O)NC(=O)[C@H](CCCNC(N)=O)NC(=O)[C@H](CCCN=C(N)N)NC(=O)[C@H](Cc2ccc(O)cc2)NC(=O)[C@@H]2CCCN2C(=O)[C@@H](CCCCN)NC1=O [Derivative of T140 peptide]: 8.10
